measured on: Torsin-1A (Homo sapiens) (UniProt O14656)
Sequence (O14656 whole entry, looked up): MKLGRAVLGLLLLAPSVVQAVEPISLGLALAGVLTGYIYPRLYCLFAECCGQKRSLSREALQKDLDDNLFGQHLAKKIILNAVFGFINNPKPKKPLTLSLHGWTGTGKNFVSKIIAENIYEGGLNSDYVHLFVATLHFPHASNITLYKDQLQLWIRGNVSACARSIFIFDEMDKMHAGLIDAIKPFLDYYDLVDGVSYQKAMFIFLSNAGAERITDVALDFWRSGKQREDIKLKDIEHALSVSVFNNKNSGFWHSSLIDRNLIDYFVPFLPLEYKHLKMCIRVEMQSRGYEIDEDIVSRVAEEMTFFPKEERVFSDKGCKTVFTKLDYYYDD
protocol: TOR1A wild-type binding on microarray – cell lysate, small-molecule microarray, lysate, 635/667 nm, primary screen (AID 1149)
conditions used: COS7 hTOR1A-WT lysate, 635 nm fluorescence, higher = more signal
endpoint label: composite z-score

[[record]]
compound = "CCCCN1CC=CC23O[C@@H]4C=CCCOC(=O)C4[C@H]2C(=O)N(CCCO)[C@@H]3C1=O (some centres undefined)"
result = -0.387

[[record]]
compound = "COCCOC(=O)N1C(=O)[C@@]2(c3cc(C#Cc4ccc(OC)cc4)ccc31)[C@H](C(N)=O)[C@H]1C(=O)O[C@H](c3ccccc3)[C@H](c3ccccc3)N1[C@@H]2c1ccc(O)cc1"
result = -1.2

[[record]]
compound = "COc1ccccc1CN1C(=O)c2ccccc2[C@](Cc2ccccc2I)(C(=O)NC2CC2)[C@@H]1c1ccc(CO)cc1"
result = 0.427

[[record]]
compound = "O=C1C2C=CC(C(O)c3ccc(B(O)O)cc3)N(Nc3ccc([N+](=O)[O-])cc3)C2C(=O)N1c1ccccc1 (centres undefined)"
result = 0.363

